Just for reference, patent US20250215412A1 is where these values come from.

Please provide measured Relative activity of maturated deamidase (% initial rate) for the entries that follow.
target: T1, Chryseobacterium sp-62563 deamidase polypeptide (second polypeptide, deamidase domain), wildtype (Chryseobacterium sp-62563)
T1 sequence: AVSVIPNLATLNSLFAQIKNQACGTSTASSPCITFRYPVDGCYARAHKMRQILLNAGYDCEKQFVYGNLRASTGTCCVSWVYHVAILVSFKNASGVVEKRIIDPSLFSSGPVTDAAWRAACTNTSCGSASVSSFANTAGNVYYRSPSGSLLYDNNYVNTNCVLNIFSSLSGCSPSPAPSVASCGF
assaySummary: cell-based or functional assay

# count of solved cases: 3
binder	valueMeasured
Chryseobacterium sp-62563 propeptide F38G (protein) NQDPNLVAKESNETAMKDFGKTVPVGIEKEDGKFKISGMVTAQPYEIKDSKENAAYISMIKTAVENETPIHVFLKANTNEIAKVDKATDDDIRYFKSVFTKEVKEENRK	> 100
Chryseobacterium sp-62563 propeptide K96Q (protein) NQDPNLVAKESNETAMKDFGKTVPVGIEKEDGKFKISFMVTAQPYEIKDSKENAAYISMIKTAVENETPIHVFLKANTNEIAKVDKATDDDIRYFQSVFTKEVKEENRK	> 100
Chryseobacterium sp-62563 propeptide K96C (protein) NQDPNLVAKESNETAMKDFGKTVPVGIEKEDGKFKISFMVTAQPYEIKDSKENAAYISMIKTAVENETPIHVFLKANTNEIAKVDKATDDDIRYFCSVFTKEVKEENRK	95

Next binder, please.
For record Chryseobacterium sp-62563 propeptide E67S (protein) NQDPNLVAKESNETAMKDFGKTVPVGIEKEDGKFKISFMVTAQPYEIKDSKENAAYISMIKTAVENSTPIHVFLKANTNEIAKVDKATDDDIRYFKSVFTKEVKEENRK the listed Relative activity of maturated deamidase (% initial rate) is 42
